# assay-info: Hydrolysis of Pertuzumab conjugated samples obtained using different small molecule compounds, hydrolysis percentage by Native MS
# Format: physicochemical
# assay-setup: hydrolysis system D: 50 mM tromethamine-hydrochloric acid buffer, pH 7.8; 3 h
observation-type: 3 h hydrolysis percentage (%)
# value in %; strip the unit string

Query block: Tell me 3 h hydrolysis percentage reported for CCC(C)[C@@H]([C@@H](CC(=O)N1CCC[C@H]1[C@H](OC)[C@@H](C)C(=O)N[C@H](C)[C@@H](O)c1ccccc1)OC)N(C)C(=O)[C@@H](NC(=O)[C@H](C(C)C)N(C)C(=O)OCc1ccc(NC(=O)[C@H](CCCNC(N)=O)NC(=O)[C@@H](NC(=O)COCCOCCOCCOc2c(F)cc(N3C(=O)C(Sc4ccccc4)=C(Sc4ccccc4)C3=O)cc2F)C(C)C)cc1)C(C)C (stereo partly shown)
Result block: 99.31

====

# assay-info: Hydrolysis of Pertuzumab conjugated samples obtained using different small molecule compounds, hydrolysis percentage by Native MS
# Assay type: physicochemical
# assay-setup: hydrolysis system C: 50 mM potassium dihydrogen phosphate-dipotassium hydrogen phosphate buffer, pH 7.8; 3 h
I'd appreciate it if you could supply 3 h hydrolysis percentage values for the items below.
# value in %; strip the unit string

Query block: Tell me 3 h hydrolysis percentage reported for CCC(C)[C@@H]([C@@H](CC(=O)N1CCC[C@H]1[C@H](OC)[C@@H](C)C(=O)N[C@H](C)[C@@H](O)c1ccccc1)OC)N(C)C(=O)[C@@H](NC(=O)[C@H](C(C)C)N(C)C(=O)OCc1ccc(NC(=O)[C@H](CCCNC(N)=O)NC(=O)[C@@H](NC(=O)COCCOCCOCCOc2ccc(N3C(=O)C(Sc4ccc(C(=O)N5CCOCC5)cc4)=C(Sc4ccc(C(=O)N5CCOCC5)cc4)C3=O)cc2)C(C)C)cc1)C(C)C (stereo partly drawn)
Result block: 99.70

Query block: Tell me 3 h hydrolysis percentage reported for CCC(C)[C@@H]([C@@H](CC(=O)N1CCC[C@H]1[C@H](OC)[C@@H](C)C(=O)N[C@H](C)[C@@H](O)c1ccccc1)OC)N(C)C(=O)[C@@H](NC(=O)[C@H](C(C)C)N(C)C(=O)OCc1ccc(NC(=O)[C@H](CCCNC(N)=O)NC(=O)[C@@H](NC(=O)COCCOCCOCCOc2ccc(N3C(=O)C(Sc4ccc(C(=O)NC)cc4)=C(Sc4ccc(C(=O)NC)cc4)C3=O)cc2OC)C(C)C)cc1)C(C)C (stereo partly drawn)
Result block: 35.12

Query block: Tell me 3 h hydrolysis percentage reported for CCC(C)[C@@H]([C@@H](CC(=O)N1CCC[C@H]1[C@H](OC)[C@@H](C)C(=O)N[C@H](C)[C@@H](O)c1ccccc1)OC)N(C)C(=O)[C@@H](NC(=O)[C@H](C(C)C)N(C)C(=O)OCc1ccc(NC(=O)[C@H](CCCNC(N)=O)NC(=O)[C@@H](NC(=O)COCCOCCOCCOc2c(F)cc(N3C(=O)C(Sc4ccccc4)=C(Sc4ccccc4)C3=O)cc2F)C(C)C)cc1)C(C)C (stereo partly drawn)
Result block: 99.70
